From: patent US8809321B2

- Test system: A549 lung cancer cell line
- testProtocol: MTT assay, 48 h continuous drug exposure, A549
- Assay type: cell-based, human
- experimentalSetup: 48 h exposure
Measured log10(GI50), listed per entry for reference.
measurementLabel: log10(GI50) (log10 of the value in nM)

{"columns": ["molecule", "log10(GI50)"],
 "data": [
  ["COc1ccc(Oc2ccc(C(=O)N3CCN(CCCCCOc4cc5c(cc4OC)C(=O)N4CCC[C@H]4C=N5)CC3)cc2[N+](=O)[O-])cc1OC [32c]", 2.15],
  ["COc1cc2c(cc1OCCCCCN1CCN(C(=O)c3ccc(Oc4cc(OC)c(OC)c(OC)c4)c([N+](=O)[O-])c3)CC1)N=C[C@@H]1CCCN1C2=O [33c]", 3.35],
  ["COc1cc2c(cc1OCCCCCOc1cccc(Oc3cc(OC)c(OC)c(OC)c3)c1[N+](=O)[O-])N=C[C@@H]1CCCN1C2=O [21g]", 3.31],
  ["COc1ccc(Oc2ccc(OCCCCCOc3cc4c(cc3OC)C(=O)N3CCC[C@H]3C=N4)cc2I)cc1OC [17c]", 3.39],
  ["COc1cc2c(cc1OCCCCCOc1ccc(N)c(Oc3cc(OC)c(OC)c(OC)c3)c1)N=C[C@@H]1CCCN1C2=O [12g]", 2.28],
  ["COc1ccc(Oc2cccc(OCCCCCOc3cc4c(cc3OC)C(=O)N3CCC[C@H]3C=N4)c2[N+](=O)[O-])cc1OC [20g]", 2.28],
  ["COc1ccc(Oc2ccc(C(=O)N3CCN(CCCCCOc4cc5c(cc4OC)C(=O)N4CCC[C@H]4C=N5)CC3)cc2N)cc1 [22c]", 2.26],
  ["COc1ccc(Oc2ccc(C(=O)N3CCN(CCCCCOc4cc5c(cc4OC)C(=O)N4CCC[C@H]4C=N5)CC3)cc2[N+](=O)[O-])cc1 [31c]", 2.23],
  ["COc1ccc(Oc2ccc(C(=O)N3CCN(CCCCCOc4cc5c(cc4OC)C(=O)N4CCC[C@H]4C=N5)CC3)cc2N)cc1OC [23c]", 2.26],
  ["COc1ccc(Oc2cc(OCCCCCOc3cc4c(cc3OC)C(=O)N3CCC[C@H]3C=N4)ccc2N)cc1 [10g]", 3.45],
  ["COc1ccc(Oc2cc(OCCCCCOc3cc4c(cc3OC)C(=O)N3CCC[C@H]3C=N4)ccc2N)cc1OC [11g]", 3.30],
  ["COc1cc2c(cc1OCCCCCOc1ccc(Oc3cc(OC)c(OC)c(OC)c3)c([N+](=O)[O-])c1)N=C[C@@H]1CCCN1C2=O [21c]", 3.40],
  ["COc1cc2c(cc1OCCCCCOc1ccc(Oc3cc(OC)c(OC)c(OC)c3)c(I)c1)N=C[C@@H]1CCCN1C2=O [18c]", 3.48],
  ["COc1ccc(Oc2cccc(OCCCCCOc3cc4c(cc3OC)C(=O)N3CCC[C@H]3C=N4)c2[N+](=O)[O-])cc1 [19g]", 3.35],
  ["COc1ccc(Oc2cc(OCCCCCOc3cc4c(cc3OC)C(=O)N3CCC[C@H]3C=N4)ccc2I)cc1OC [17g]", 3.22],
  ["COc1cc2c(cc1OCCCCCN1CCN(C(=O)c3ccc(Oc4cc(OC)c(OC)c(OC)c4)c(N)c3)CC1)N=C[C@@H]1CCCN1C2=O [24c]", 2.23],
  ["COc1ccc(Oc2ccc(OCCCCCOc3cc4c(cc3OC)C(=O)N3CCC[C@H]3C=N4)cc2I)cc1 [16c]", 3.43],
  ["COc1ccc(Oc2ccc(OCCCCCOc3cc4c(cc3OC)C(=O)N3CCC[C@H]3C=N4)cc2[N+](=O)[O-])cc1OC [20c]", 2.18]
]}
